Target: L858R/T790M/C797S EGFR (Homo sapiens, UniProt P00533, C797S/L858R/T790M)
Construct: expressed in transfected cells; host or cells: H1975 clone #25 (lentiviral over-expression, endogenous EGFR knocked out by sgRNA)
Sequence (P00533 25-1210 T790M/C797S/L858R): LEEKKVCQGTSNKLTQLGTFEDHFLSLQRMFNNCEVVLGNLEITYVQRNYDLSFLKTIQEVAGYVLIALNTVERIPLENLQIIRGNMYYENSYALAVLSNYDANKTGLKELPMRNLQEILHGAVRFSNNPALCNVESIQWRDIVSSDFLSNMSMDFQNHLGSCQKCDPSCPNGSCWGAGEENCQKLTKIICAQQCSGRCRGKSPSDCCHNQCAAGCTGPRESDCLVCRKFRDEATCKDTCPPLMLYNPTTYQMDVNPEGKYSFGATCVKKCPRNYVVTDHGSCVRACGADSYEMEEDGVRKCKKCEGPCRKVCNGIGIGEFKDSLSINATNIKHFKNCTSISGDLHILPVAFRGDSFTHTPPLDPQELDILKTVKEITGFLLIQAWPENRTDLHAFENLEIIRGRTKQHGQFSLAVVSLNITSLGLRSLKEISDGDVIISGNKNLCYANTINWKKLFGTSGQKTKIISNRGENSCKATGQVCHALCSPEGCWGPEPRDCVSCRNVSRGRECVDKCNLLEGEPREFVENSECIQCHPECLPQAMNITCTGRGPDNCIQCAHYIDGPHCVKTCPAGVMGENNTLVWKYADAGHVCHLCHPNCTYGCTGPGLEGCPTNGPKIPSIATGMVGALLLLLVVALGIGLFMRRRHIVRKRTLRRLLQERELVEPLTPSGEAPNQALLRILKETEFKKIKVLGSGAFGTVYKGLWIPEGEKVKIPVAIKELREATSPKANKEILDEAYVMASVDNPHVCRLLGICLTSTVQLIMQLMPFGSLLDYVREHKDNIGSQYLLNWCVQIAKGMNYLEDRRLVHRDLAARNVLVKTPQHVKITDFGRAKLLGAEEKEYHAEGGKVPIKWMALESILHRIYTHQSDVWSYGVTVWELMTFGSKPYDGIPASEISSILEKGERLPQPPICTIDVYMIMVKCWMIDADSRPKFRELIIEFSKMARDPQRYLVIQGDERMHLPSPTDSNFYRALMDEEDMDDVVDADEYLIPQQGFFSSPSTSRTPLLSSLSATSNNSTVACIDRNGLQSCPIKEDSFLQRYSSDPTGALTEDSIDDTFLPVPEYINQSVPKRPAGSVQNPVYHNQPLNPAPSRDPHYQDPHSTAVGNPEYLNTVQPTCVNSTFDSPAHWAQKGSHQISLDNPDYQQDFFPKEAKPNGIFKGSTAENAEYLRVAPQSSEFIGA
Assay: EGFR degradation HTRF assay in H1975-clone #25 (LTC) cells
Assay type: cell-based
Conditions: NCI-H1975, H1975 # 25-LTC (L858R/T790M/C797S), 16h treatment, maximum percentage of degradation
I'd appreciate it if you could supply Dmax values for the items below.
Answers are plain numbers, in %.

Cc1cc2cc(n1)-c1cnn(C)c1OCCC[C@@H](C)CN1/C(=N/C2=O)Nc2ccc(N3CCN(C4CCN(c5ccc(C6CCC(=O)NC6=O)nc5)CC4)CC3=O)cc21 (stereo partly shown)	84.5
Cc1cc2cc(n1)-c1cnn(C)c1OCCC[C@@H](C)CN1/C(=N/C2=O)Nc2ccc(C(=O)N(C)[C@@H]3CCN(CCc4cc(F)c([C@H]5CCC(=O)NC5=O)c(F)c4)CC3(F)F)cc21	88.9
CO[C@@H]1CN(CCc2cc(F)c([C@H]3CCC(=O)NC3=O)c(F)c2)CC[C@@H]1N(C)C(=O)c1ccc2c(c1)N1C[C@H](C)CCCOc3c(cnn3C)-c3cc(cc(C)n3)C(=O)/N=C/1N2	92.4

Can you give me Dmax for all of these, one by one?
1. Cc1cc2cc(n1)-c1cnn(C)c1OCCC[C@@H](C)CN1/C(=N/C2=O)Nc2ccc(C(=O)NC3CCN(CCc4cc(F)c([C@H]5CCC(=O)NC5=O)c(F)c4)CC3)cc21
2. COC[C@@H]1CN(c2ccc3c(c2)N2C[C@H]4C[C@@H]4CCOc4c(cnn4C)-c4cc(cc(C)n4)C(=O)/N=C/2N3)CCN1C1CCN(c2cc(F)c([C@H]3CCC(=O)NC3=O)c(F)c2)CC1

[out]
[93.2, 88.1]

Can you give me Dmax for all of these, one by one?
1. Cc1cc2cc(n1)-c1cnn(C)c1OCCC[C@@H](C)CN1/C(=N/C2=O)Nc2ccc(CC3CCN(C(=O)C4CN(c5cc(F)c([C@H]6CCC(=O)NC6=O)c(F)c5)C4)CC3)cc21
2. Cc1cc2cc(n1)-c1cnn(C)c1OCCC[C@@H](C)CN1/C(=N/C2=O)Nc2ccc(C(=O)N(C)[C@H]3CCN(CCNc4cc(F)c([C@H]5CCC(=O)NC5=O)c(F)c4)C[C@H]3F)cc21

[out]
79.9
91.7

Can you give me Dmax for all of these, one by one?
1. Cc1cc2cc(n1)-c1cnn(C)c1OCC[C@H]1C[C@@H]1CN1/C(=N/C2=O)Nc2ccc(NC3CN(C4CCN(c5cc(F)c([C@H]6CCC(=O)NC6=O)c(F)c5)CC4)C3)cc21
2. Cc1cc2cc(n1)-c1cnn(C)c1OCCC[C@@H](C)CN1/C(=N/C2=O)Nc2ccc(N3CCN(CC4CN(c5cc(F)c([C@H]6CCC(=O)NC6=O)c(F)c5)C4)[C@H](CO)C3)cc21
3. Cc1cc2cc(n1)-c1cnn(C)c1OCCC[C@@H](C)CN1/C(=N/C2=O)Nc2ccc(C(=O)N(C)C3CCN(CCc4cccc5c4oc(=O)n5C4CCC(=O)NC4=O)CC3)cc21 (stereo partly shown)

[out]
1: 90.8; 2: 90.9; 3: 80.5
